Just for reference, paper PMC6387142 is where these values come from.

The next entries give measured IC50 for estrogen receptor α ligand binding domain (ER-LBD) (Homo sapiens, UniProt P03372).
// return numeric value only (unit: nM, not printed)

# INPUT SMILES, UNITS TEXT, IC50
rows = [
    ("C/C=C(/C(=C/C)c1ccc(O)cc1)c1ccc(O)cc1", "nM", 12.9),
]

Switching to the query record.
Record CC[C@H](c1ccc(O)cc1)[C@@H](CC)c1ccc(O)cc1 , field IC50: 9.27
